Measured Solubility, listed per entry.
- assayNotes: Microsolubility estimate by repeated addition of vehicle
- Type: physicochemical
- particulars: Crodamol GTCC/Capmul MCM/Polysorbate 80 (40/40/20), oil or lipid, thermodynamic from solid; read-out: Microsolubility

Consider the following illustrative entries.
{"compound": "CCC(CC)CC1(C(=O)Nc2ccccc2SC(=O)C(C)C)CCCCC1", "Solubility": "< 100 mg/mL"}
{"compound": "CCOC(=O)N1c2cc(C(F)(F)F)ccc2[C@@H](N(Cc2cc(C(F)(F)F)cc(C(F)(F)F)c2)C(=O)OC)C[C@H]1C", "Solubility": "> 20 mg/mL"}
{"compound": "CCOC(=O)N1c2cc3c(cc2[C@H](N(Cc2cc(C(F)(F)F)cc(C(F)(F)F)c2)C(=O)OC)C[C@@H]1C)CCC3", "Solubility": "> 100 mg/mL"}

Name the reported Solubility value associated with the compound COC(=O)N(Cc1cc(C(F)(F)F)cc(C(F)(F)F)c1)[C@H]1CC(C2CC2)N(C(=O)OC(C)C)c2ccc(C(F)(F)F)cc21 (stereo in doubt)
> 300 mg/mL

====

- assayNotes: PK in monkeys
- Format: in vivo, cynomologous monkeys
- particulars: monkey, in vivo, oral, 100 mg/kg, crystalline ethanolate, Miglyol/Cremophor/water 40/10/50, 100 mg/kg (BID), read-out: Cmax
endpointName: Cmax

What Cmax value was documented for this compound, CCOC(=O)N1c2ccc(C(F)(F)F)cc2[C@@H](N(Cc2cc(C(F)(F)F)cc(C(F)(F)F)c2)C(=O)OC)C[C@H]1CC [Compound A] ?
1600 to 2300 ng/mL

====

- assayNotes: Microsolubility estimate by repeated addition of vehicle
- Assay type: physicochemical
- particulars: Linoleic acid, oil or lipid, thermodynamic from solid; read-out: Microsolubility
endpointName: Solubility

Please look up its Solubility: `CCOC(=O)N1c2ccc(C(F)(F)F)cc2[C@@H](N(Cc2cc(C(F)(F)F)cc(C(F)(F)F)c2)C(=O)OC)C[C@H]1CC`
< 60 mg/mL

====

Recorded measurements of Solubility, one per entry
- assayNotes: Microsolubility estimate by repeated addition of vehicle
- Assay type: physicochemical
- particulars: Peanut oil, oil or lipid, thermodynamic from solid; read-out: Microsolubility

{"smilesString": "CCOC(=O)N1c2cc(C(F)(F)F)ccc2[C@@H](N(Cc2cc(C(F)(F)F)cc(C(F)(F)F)c2)C(=O)OC)C[C@H]1C", "Solubility": "< 20 mg/mL"}

--- query ---
Item `CCOC(=O)N1c2cc3c(cc2[C@H](N(Cc2cc(C(F)(F)F)cc(C(F)(F)F)c2)C(=O)OC)C[C@@H]1C)CCC3` has what recorded Solubility?
> 100 mg/mL

====

- assayNotes: Microsolubility estimate by repeated addition of vehicle
- Type: physicochemical
- particulars: Glycerin, organic solvent or mixture, thermodynamic from solid; read-out: Microsolubility
endpointName: Solubility

What Solubility value was documented for this molecule, `CCOC(=O)N1c2ccc(C(F)(F)F)cc2[C@@H](N(Cc2cc(C(F)(F)F)cc(C(F)(F)F)c2)C(=O)OC)C[C@H]1CC` ?
< 75 mg/mL

====

- assayNotes: Microsolubility estimate by repeated addition of vehicle
- Format: physicochemical
- particulars: Incromega TG2671, oil or lipid, thermodynamic from solid; read-out: Microsolubility
endpointName: Solubility

Reported Solubility for `CCOC(=O)N1c2ccc(C(F)(F)F)cc2[C@@H](N(Cc2cc(C(F)(F)F)cc(C(F)(F)F)c2)C(=O)OC)C[C@H]1CC` : what is it?
< 75 mg/mL
